Parameter inhibition at 10 µM: see the listing below.
- SYSTEM: human D1 receptor (Homo sapiens)
- Construct: expressed in transfected cells; host or cells: CHO
- Sequence (P21728 whole entry): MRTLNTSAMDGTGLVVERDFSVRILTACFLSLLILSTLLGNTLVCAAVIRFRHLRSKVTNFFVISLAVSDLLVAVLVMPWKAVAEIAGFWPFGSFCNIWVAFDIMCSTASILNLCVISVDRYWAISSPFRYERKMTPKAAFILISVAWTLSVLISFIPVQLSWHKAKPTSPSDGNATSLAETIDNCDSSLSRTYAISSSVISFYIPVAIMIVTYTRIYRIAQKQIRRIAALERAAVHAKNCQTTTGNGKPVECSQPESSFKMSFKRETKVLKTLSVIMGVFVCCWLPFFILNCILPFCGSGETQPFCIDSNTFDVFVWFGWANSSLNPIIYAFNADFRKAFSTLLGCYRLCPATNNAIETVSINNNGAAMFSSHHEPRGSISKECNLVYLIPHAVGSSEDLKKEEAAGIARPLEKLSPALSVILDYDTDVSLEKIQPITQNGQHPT
- ASSAY_PROTOCOL: Radioligand binding to dopamine receptor D1 ([3H] SCH-23390, CHO membranes)
- MEASUREMENT_CONDITIONS: read-out: Dopamine receptors, % inhibition D1
- From the text: For this purpose sDNA of human D1 receptor is expressed in CHO cells, as it was described in [Dearry A, Gingrich JA, Falardeau P, Fremeau RT Jr, Bates MD and Caron MG. Molecular cloning and expression of the gene for a human D1 dopamine receptor. Nature. […] Nature.
READOUT_LABEL: inhibition at 10 µM (%)

[[record]]
compound = "Cc1ccc2c(c1)[C@@H]1CN(C)CCC[C@@H]1N2CCc1cccnc1 (relative stereo) [1.6.1(1)·3HCl]"
val = 59

[[record]]
compound = "Cc1ccc2c(c1)[C@@H]1CN(C)CCC[C@@H]1N2CCc1ccc(C)nc1 (relative stereo) [1.6.1(2)·3HCl]"
val = 55

[[record]]
compound = "Cc1ccc2c(c1)c1c(n2CCc2ccccc2)CCN(C)C1 [1.1.2(1-2) ·2HCl]"
val = 89

[[record]]
compound = "Cc1ccc2c(c1)c1c(n2CCc2ccccn2)CCN(C)C1 [1.1.2(2-3)·2HCl]"
val = 70

[[record]]
compound = "CN1CCc2c(c3ccccc3n2Cc2ccccc2)C1"
val = 77


###

- SYSTEM: recombinant human 5-HT6 receptor (Homo sapiens)
- Construct: expressed in transfected cells; host or cells: HeLa
- Sequence (P50406 whole entry): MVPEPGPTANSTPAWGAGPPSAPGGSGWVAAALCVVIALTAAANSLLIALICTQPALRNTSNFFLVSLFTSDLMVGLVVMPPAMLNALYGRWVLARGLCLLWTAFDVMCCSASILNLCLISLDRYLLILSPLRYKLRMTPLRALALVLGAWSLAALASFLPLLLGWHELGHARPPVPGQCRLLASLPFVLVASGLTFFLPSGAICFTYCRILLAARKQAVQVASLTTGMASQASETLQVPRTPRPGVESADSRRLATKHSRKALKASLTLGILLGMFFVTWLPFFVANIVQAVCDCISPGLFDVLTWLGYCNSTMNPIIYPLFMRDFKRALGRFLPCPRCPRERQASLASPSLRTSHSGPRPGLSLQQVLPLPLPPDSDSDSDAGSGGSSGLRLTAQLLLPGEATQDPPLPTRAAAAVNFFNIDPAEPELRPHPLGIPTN
- ASSAY_PROTOCOL: Radioligand binding to serotonin receptor 5-HT6 ([3H] Lysergic acid diethylamide, HeLa membranes)
- MEASUREMENT_CONDITIONS: read-out: 5-HT6 % inhibition
Counter-ions that a name gives are not always drawn.
READOUT_LABEL: inhibition at 1 µM

[[record]]
molecule = "Cc1ccc2c(c1)[C@@H]1CN(C)CCC[C@@H]1N2CCc1cccnc1 (relative stereo) [1.6.1(1)·3HCl]"
system = "recombinant human 5-HT6 receptor (Homo sapiens)"
val = "84%"

[[record]]
molecule = "Cc1ccc2c(c1)[C@@H]1CN(C)CCC[C@@H]1N2CCc1ccc(C)nc1 (relative stereo) [1.6.1(2)·3HCl]"
system = "recombinant human 5-HT6 receptor (Homo sapiens)"
val = "76%"

[[record]]
molecule = "Cc1ccc2c(c1)c1c(n2CCc2cccnc2)CCCN(C)C1 [1.2.2(3-2)·2HCl]"
system = "recombinant human 5-HT6 receptor (Homo sapiens)"
val = "79%"

[[record]]
molecule = "Cc1ccc(CCn2c3c(c4cc(F)ccc42)CN(C)CCC3)cn1 [1.2.2(4-2)·2HCl]"
system = "recombinant human 5-HT6 receptor (Homo sapiens)"
val = "84%"

[[record]]
molecule = "Cc1ccc(S(=O)(=O)n2c3c(c4cc(C)ccc42)CN(C)CCC3)cc1 [1.8.1(3)·HCl]"
system = "recombinant human 5-HT6 receptor (Homo sapiens)"
val = "93%"


###

- SYSTEM: recombinant human 5-HT2A receptor (Homo sapiens, UniProt P28223)
- Construct: expressed in transfected cells; host or cells: CHO-K1
- Sequence (P28223 whole entry): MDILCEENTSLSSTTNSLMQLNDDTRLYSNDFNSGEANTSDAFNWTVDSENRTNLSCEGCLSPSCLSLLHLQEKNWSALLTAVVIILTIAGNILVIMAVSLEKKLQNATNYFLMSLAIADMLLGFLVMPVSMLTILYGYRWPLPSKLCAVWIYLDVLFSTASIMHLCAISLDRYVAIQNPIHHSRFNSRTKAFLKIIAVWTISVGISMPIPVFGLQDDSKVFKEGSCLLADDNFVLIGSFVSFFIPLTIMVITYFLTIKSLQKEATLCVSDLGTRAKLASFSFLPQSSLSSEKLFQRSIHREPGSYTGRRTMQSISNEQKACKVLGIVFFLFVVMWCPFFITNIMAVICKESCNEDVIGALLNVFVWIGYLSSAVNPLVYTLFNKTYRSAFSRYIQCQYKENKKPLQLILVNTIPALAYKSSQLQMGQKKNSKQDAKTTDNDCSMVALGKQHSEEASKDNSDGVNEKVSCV
- ASSAY_PROTOCOL: Radioligand binding to serotonin receptor 5-HT2A ([3H] Ketanserin, CHO-K1 membranes)
- MEASUREMENT_CONDITIONS: 10 µM ligand
Where a name gives a salt, the structure may show the parent alone.
READOUT_LABEL: inhibition at 10 µM (%)

[[record]]
compound = "CN1CCc2c(c3cc(F)ccc3n2CCCc2ccccc2)C1 [1.3.3(8)·HCl]"
uom = "%"
val = 97

[[record]]
compound = "CN1CCc2c(c3cc(C(F)(F)F)ccc3n2CCc2ccccc2)C1 [1.1.2(1-7)·HCl]"
uom = "%"
val = 91

[[record]]
compound = "CN1CCc2c(c3cc(F)ccc3n2Cc2ccccc2)C1 [1.9(3)·HCl]"
uom = "%"
val = 97

[[record]]
compound = "CN1CCc2c(c3ccccc3n2Cc2ccccc2)C1.Cl [1.9(1)·HCl]"
uom = "%"
val = 96

[[record]]
compound = "Cc1ccc2c(c1)c1c(n2Cc2ccccc2)CCCN(C)C1 [1.10(4)·HCl]"
uom = "%"
val = 91


Entry source: patent EP2236511A2
